system: Escherichia coli TOP10; experiment: shrunken log2 fold change of peptide-encoding DNA abundance (4.5 h post-induction vs induction); higher = less antimicrobial activity (less host growth inhibition); conditions: time post-induction: 4.5 h; library: site-saturation at positions 5, 18, 19, 20
Metric: shrunken log2 fold change
Write no unit; give the number alone.

| Sequence text | shrunken log2 fold change |
| --- | --- |
| RRIRVRPPRLPRPRPRPGISPRP | -0.49 |
| RRIRPRPPRLPRPRPRPEPWPRP | 0.232 |
| RRIRIRPPRLPRPRPRPLKRPRP | -0.0843 |
| RRIRCRPPRLPRPRPRPWKYPRP | -0.0802 |
| RRIRHRPPRLPRPRPRPTFCPRP | -0.186 |
| RRIRSRPPRLPRPRPRPACWPRP | 0.523 |
| RRIRQRPPRLPRPRPRPVSTPRP | -0.0279 |
| RRIRPRPPRLPRPRPRPKQKPRP | 0.123 |
| RRIRPRPPRLPRPRPRPHIRPRP | -0.0938 |
| RRIRTRPPRLPRPRPRPWGSPRP | 0.0639 |

Q: Sample RRIRDRPPRLPRPRPRPMFCPRP — what was its shrunken log2 fold change?
A: 2.64

Q: Next sequence up: RRIRSRPPRLPRPRPRPHINPRP
A: -0.607

Q: Entry RRIRMRPPRLPRPRPRPLKMPRP please
A: 0.146

Q: Then RRIRERPPRLPRPRPRPYIEPRP ?
A: -0.266

Q: Moving on to RRIRGRPPRLPRPRPRPLLIPRP
A: 0.61

* * *

system: Escherichia coli TOP10; test: shrunken log2 fold change of peptide-encoding DNA abundance (4.5 h post-induction vs induction); higher = less antimicrobial activity (less host growth inhibition); settings: time post-induction: 4.5 h; library: site-saturation at positions 5, 18, 19, 20
# Lookup of reported shrunken log2 fold change keyed by entry

As a guide, the following entries are already answered.
| Sequence text | Metric | Result |
| --- | --- | --- |
| RRIRGRPPRLPRPRPRPPWFPRP | shrunken log2 fold change | 0.772 |
| RRIRPRPPRLPRPRPRPKTPPRP | shrunken log2 fold change | 0.0677 |
| RRIRARPPRLPRPRPRPLWQPRP | shrunken log2 fold change | 0.136 |
| RRIRPRPPRLPRPRPRPCTLPRP | shrunken log2 fold change | -0.029 |
| RRIRTRPPRLPRPRPRPIPFPRP | shrunken log2 fold change | -0.325 |
| RRIRERPPRLPRPRPRPYNLPRP | shrunken log2 fold change | -0.321 |

Next up:
Q: Please look up its shrunken log2 fold change: RRIRFRPPRLPRPRPRPTTMPRP
A: -0.0267

* * *

test system: Escherichia coli TOP10; assay: shrunken log2 fold change of peptide-encoding DNA abundance (4.5 h post-induction vs induction); higher = less antimicrobial activity (less host growth inhibition); details: time post-induction: 4.5 h; library: site-saturation at positions 5, 18, 19, 20
Classification field: enter condition met for shrunken log2 fold change values not below -0.02, condition not met for values below it.

Solved cases below.
| Sequence text | Category label |
| --- | --- |
| RRIRLRPPRLPRPRPRPLHVPRP | condition not met |
| RRIRCRPPRLPRPRPRPLRIPRP | condition not met |
| RRIRFRPPRLPRPRPRPEMTPRP | condition not met |
| RRIRPRPPRLPRPRPRPCMNPRP | condition not met |
| RRIRARPPRLPRPRPRPPLHPRP | condition met |

Q: Determine whether measured shrunken log2 fold change meets or exceeds -0.02 for RRIRIRPPRLPRPRPRPKRYPRP
A: condition not met

Q: Also need RRIRKRPPRLPRPRPRPCDVPRP , thanks.
A: condition met

Q: Here is the next sequence: RRIRARPPRLPRPRPRPRFWPRP
A: condition met

Q: Now consider RRIRERPPRLPRPRPRPVQPPRP .
A: condition met

Q: Record: RRIRARPPRLPRPRPRPLHYPRP
A: condition not met

* * *

tested on: Escherichia coli TOP10; assay: shrunken log2 fold change of peptide-encoding DNA abundance (4.5 h post-induction vs induction); higher = less antimicrobial activity (less host growth inhibition); conditions: time post-induction: 4.5 h; library: site-saturation at positions 5, 18, 19, 20
Metric: shrunken log2 fold change

| Sequence text | shrunken log2 fold change |
| --- | --- |
| RRIRPRPPRLPRPRPRPPIHPRP | -0.039 |
| RRIRWRPPRLPRPRPRPECQPRP | -0.0508 |

Q: Would you kindly share the measured shrunken log2 fold change for RRIRWRPPRLPRPRPRPPPDPRP ?
A: 0.906

* * *

system: Escherichia coli TOP10; assay: shrunken log2 fold change of peptide-encoding DNA abundance (4.5 h post-induction vs induction); higher = less antimicrobial activity (less host growth inhibition); settings: time post-induction: 4.5 h; library: site-saturation at positions 5, 18, 19, 20
Metric: shrunken log2 fold change
I'd appreciate a reply containing only the number, no unit.

Take a look at these entries with their results.
| Sequence text | shrunken log2 fold change |
| --- | --- |
| RRIRLRPPRLPRPRPRPDMTPRP | -0.0167 |
| RRIRIRPPRLPRPRPRPADRPRP | -0.123 |
| RRIRWRPPRLPRPRPRPMRYPRP | -0.0679 |

Q: shrunken log2 fold change lookup needed for RRIRQRPPRLPRPRPRPEMIPRP , thanks.
A: -0.0264

Q: Now give it for RRIRYRPPRLPRPRPRPKERPRP too.
A: -0.002

Q: Also, RRIRRRPPRLPRPRPRPADGPRP please.
A: 0.344

Q: Moving on to the next sequence: RRIRFRPPRLPRPRPRPSRQPRP
A: -0.0117

Q: Again, but for RRIRLRPPRLPRPRPRPCTTPRP
A: 0.0144

* * *

test system: Escherichia coli TOP10; test: shrunken log2 fold change of peptide-encoding DNA abundance (4.5 h post-induction vs induction); higher = less antimicrobial activity (less host growth inhibition); conditions: time post-induction: 4.5 h; library: site-saturation at positions 5, 18, 19, 20
Metric: shrunken log2 fold change
Answer field: number only, no words.

Guide cases for shrunken log2 fold change, answers given:
| Sequence text | Result number |
| --- | --- |
| RRIRTRPPRLPRPRPRPCWNPRP | 0.00718 |
| RRIRERPPRLPRPRPRPDSDPRP | -0.0703 |
| RRIRSRPPRLPRPRPRPLQYPRP | -0.221 |
| RRIRIRPPRLPRPRPRPEERPRP | 0.0136 |

Q: Entry RRIRTRPPRLPRPRPRPNIWPRP : reported shrunken log2 fold change = ?
A: 0.682

Q: // next record RRIRSRPPRLPRPRPRPIEGPRP
A: -0.0107

Q: Item: RRIRVRPPRLPRPRPRPVDKPRP
A: -0.278

Q: Moving on to RRIRNRPPRLPRPRPRPICNPRP
A: -0.203

Q: Another sequence: RRIRCRPPRLPRPRPRPSTEPRP
A: -0.174

Q: Follow-up entry: RRIRKRPPRLPRPRPRPHWIPRP
A: -0.0313

Q: Do the same for RRIRKRPPRLPRPRPRPCSVPRP please
A: 0.0108

Q: Another sequence: RRIRHRPPRLPRPRPRPFSPPRP
A: 0.0457

* * *

tested on: Escherichia coli TOP10; test: shrunken log2 fold change of peptide-encoding DNA abundance (4.5 h post-induction vs induction); higher = less antimicrobial activity (less host growth inhibition); conditions: time post-induction: 4.5 h; library: site-saturation at positions 5, 18, 19, 20
shrunken log2 fold change reference
Note: the reply should be a number with no unit written.

Look over these answered cases.
| Sequence text | Target | Result number |
| --- | --- | --- |
| RRIRPRPPRLPRPRPRPPLQPRP | Escherichia coli TOP10 | 0.327 |
| RRIRIRPPRLPRPRPRPDGPPRP | Escherichia coli TOP10 | -0.0369 |
| RRIRGRPPRLPRPRPRPLIKPRP | Escherichia coli TOP10 | 0.469 |
| RRIRIRPPRLPRPRPRPEQPPRP | Escherichia coli TOP10 | 0.307 |
| RRIRERPPRLPRPRPRPATSPRP | Escherichia coli TOP10 | 0.0131 |
| RRIRRRPPRLPRPRPRPWSRPRP | Escherichia coli TOP10 | 0.0777 |
| RRIRARPPRLPRPRPRPSPQPRP | Escherichia coli TOP10 | 0.554 |
| RRIRPRPPRLPRPRPRPNYAPRP | Escherichia coli TOP10 | -0.0849 |

Q: Request - read-out shrunken log2 fold change | tested on Escherichia coli TOP10 | sequence RRIRPRPPRLPRPRPRPVTPPRP;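 note: peptides expressed intracellularly from a pBAD plasmid library in pooled LB shake-flask culture, induced with 0.3% L-arabinose, DNA abundance read by NGS, three biological replicates, DESeq2 with apeglm shrinkage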
A: 0.125

Q: Lookup RRIRGRPPRLPRPRPRPRSTPRP
A: 0.978

Q: Continue with RRIRRRPPRLPRPRPRPRINPRP
A: 0.125
